B1: TPR t1 (parent)
chain: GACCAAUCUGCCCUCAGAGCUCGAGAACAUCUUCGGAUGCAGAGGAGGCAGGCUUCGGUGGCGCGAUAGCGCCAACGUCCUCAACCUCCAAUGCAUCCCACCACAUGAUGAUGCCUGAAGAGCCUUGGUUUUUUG

Variants of: B1
Test: polymerase ribozyme fitness, log enrichment relative to wild type (log ratio); higher = more active; in vitro selection for triplet polymerase activity
// class assignment uses polymerase ribozyme fitness (log ratio) with these ranges: range 1: < -5; range 2: ≥ -5 and < -2; range 3: ≥ -2

mutant.name: G107C G120C U130A
label: range 2
//
mutant.name: C20U C53G G69C
label: range 2
//
mutant.name: C15A A29G C72A U81A U87C G120C
label: range 2
//
mutant.name: C72G C94U
label: range 3
//
mutant.name: C13U U14A A27U G47C
label: range 1
//
mutant.name: A2C A50U U59A A111C A121C U133A G135C
label: range 3
//
mutant.name: C20A C56G
label: range 2
//
mutant.name: A6U A41U G61A C62G U112A
label: range 1
//
mutant.name: U9A G39C C62A U78A U87G G110U
label: range 1
//
mutant.name: A5G A37G C53U A105G U112G U125G G135U
label: range 1
//
mutant.name: G19U U87A
label: range 2
//
mutant.name: A18G G120C
label: range 3
//
mutant.name: C12U U21G C88U
label: range 2
//
mutant.name: G51U C104U
label: range 2
//
mutant.name: C13A A16U C101G
label: range 2
//
mutant.name: A16U C49A G69U
label: range 3
//
mutant.name: A6G G39A C123U U133A
label: range 3
//
mutant.name: G48C C115A
label: range 3
//
mutant.name: G36C G60A
label: range 3
//
mutant.name: C53U C56G C101A A121C G135C
label: range 3
//
mutant.name: C40G G45U C88G U92A
label: range 2
//
mutant.name: U21A A46U G93A G113U U130A U132A
label: range 2
//
mutant.name: G48C U55G C62A C79U A84C C85G G93U C124A
label: range 3
//
mutant.name: U54C C82U U106A U109A G135U
label: range 2
//
mutant.name: G47A G51A G71U C98U A105U U112G
label: range 1
//
mutant.name: A6C A27G C49U C79A U81A
label: range 1
//
mutant.name: G52A C82U A90C G117C
label: range 2
//
mutant.name: G45C G69U C82A G127A
label: range 2
